Where do these numbers come from? They come from the supplement of paper PMC11732987.

Consider the following compounds; for each one, report its log2 ratio of Biotin-Ahx-Ub-VS probe labelling.
# target.system: USP38 (UniProt Q8NB14)
# Sequence (Q8NB14 whole entry, the tested form may be a part): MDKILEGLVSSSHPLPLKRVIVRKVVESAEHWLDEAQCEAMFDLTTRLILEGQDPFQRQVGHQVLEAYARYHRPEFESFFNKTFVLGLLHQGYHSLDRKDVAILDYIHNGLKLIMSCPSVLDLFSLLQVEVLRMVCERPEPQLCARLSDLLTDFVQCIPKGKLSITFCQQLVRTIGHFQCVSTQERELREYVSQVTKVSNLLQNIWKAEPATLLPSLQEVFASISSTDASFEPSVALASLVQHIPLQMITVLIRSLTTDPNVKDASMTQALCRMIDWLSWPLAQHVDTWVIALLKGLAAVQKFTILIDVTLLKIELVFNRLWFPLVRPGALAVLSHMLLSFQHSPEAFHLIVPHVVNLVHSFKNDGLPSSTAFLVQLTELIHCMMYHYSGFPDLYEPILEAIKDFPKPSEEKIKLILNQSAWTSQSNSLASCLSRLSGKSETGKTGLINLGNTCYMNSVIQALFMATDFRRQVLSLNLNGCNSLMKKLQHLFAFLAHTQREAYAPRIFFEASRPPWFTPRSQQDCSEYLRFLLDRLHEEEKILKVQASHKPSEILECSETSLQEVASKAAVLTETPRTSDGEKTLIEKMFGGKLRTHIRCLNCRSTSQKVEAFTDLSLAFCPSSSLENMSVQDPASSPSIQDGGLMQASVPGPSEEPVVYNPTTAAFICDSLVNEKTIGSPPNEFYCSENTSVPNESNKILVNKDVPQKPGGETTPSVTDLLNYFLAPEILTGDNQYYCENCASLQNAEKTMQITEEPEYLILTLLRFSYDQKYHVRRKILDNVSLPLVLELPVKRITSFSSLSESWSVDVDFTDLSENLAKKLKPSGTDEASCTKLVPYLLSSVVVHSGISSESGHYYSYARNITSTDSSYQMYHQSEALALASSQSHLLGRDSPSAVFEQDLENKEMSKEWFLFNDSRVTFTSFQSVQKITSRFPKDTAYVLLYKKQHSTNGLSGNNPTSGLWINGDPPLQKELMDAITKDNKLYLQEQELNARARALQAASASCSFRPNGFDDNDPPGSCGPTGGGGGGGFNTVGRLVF
# test.protocol: log2 ratio of Biotin-Ahx-Ub-VS probe labelling (fragment/DMSO); higher = less target engagement (more negative = stronger competition), active = hit call of the paper (q ≤ 0.05, log2 ratio ≤ -1)
# applied.conditions: compound concentration: 200 uM; treatment time: 3 h
# print the numeric value only

Req: I'd like to know its log2 ratio of Biotin-Ahx-Ub-VS probe labelling. The compound in question is "O=C(CCl)N1CCC(=C(F)CO)C1"
Resp: 0.0909

Req: Repeat with "Cc1cccc(NC(=O)[C@@H]2CCCN2C(=O)CCl)n1"
Resp: -0.0719

Req: Repeat with "Cc1cccn2cc(CCNC(=O)CCl)nc12.Cl"
Resp: -0.247

Req: Repeat with Cc1ccc(N2CCC(NC(=O)CCl)C2=O)cc1 (centres undefined)
Resp: 0.0543

Req: Repeat with "CCN(Cc1ccc(C#N)cc1F)C(=O)CCl"
Resp: -0.292

Req: Repeat with "O=C(CCl)Nc1ccccc1C(F)(F)F"
Resp: -0.0183

Req: Repeat with "Cc1noc(C)c1CNC(=O)CCl"
Resp: -0.547

Req: Repeat with Cl.O=C(CCl)N1CCC(Cc2nccs2)C1 (centres undefined)
Resp: 0.0569

Req: Repeat with Cl.O=C(CCl)N1CCCC(c2ncc[nH]2)C1 (centres undefined)
Resp: -0.0133
